- Tested on: Z-138 cells
- protocol notes: Z-138 Methylation Assay (In Cell Western for symmetric di-methyl arginine and DNA content)
- Assay type: cell-based
- applied conditions: Homo sapiens, Table D-2, read-out: ICW EC50
- Procedure: Z-138 suspension cells were purchased from ATCC (American Type Culture Collection, Manassas, Va.). […] First, the ratio for each well was determined by: Each plate included fourteen control wells of DMSO only treatment (minimum inhibition) as well as fourteen control wells for maximum inhibition treated with 3 μM of a reference compound (Background wells). The average of the ratio values for each control type was calculated and used to determine the percent inhibition for each test well in the plate. […]
observable: EC50

Problem: Could you share which EC50 value was measured for CN1CCC(n2cnc3ccc(-c4ccnc(NCC(O)CN5CCc6ccccc6C5)c4)cc32)CC1 (centres unmarked) ?
Solution: 101 to 1000 nM

Problem: Which EC50 is reported for this compound? N#Cc1cccc(-c2cccc(OCC(O)CN3CCc4ccccc4C3)c2)c1 (centres unmarked)
Solution: 1000 to 10000 nM

Problem: Need EC50 of O=C(Cn1ccc2cnc(-c3cccc(OCC(O)CN4CCc5ccccc5C4)c3)nc21)N1CCOCC1 (centres unmarked) , thanks.
Solution: 101 to 1000 nM

Problem: Return reported EC50; argument: OC(COc1cccc(-c2ccc3ncn(C4COC4)c3c2)c1)CN1CCc2ccccc2C1 (centres unmarked)
Solution: 101 to 1000 nM

Problem: Look at this compound and give its reported EC50. OC(COc1cccc(-c2cnc3ccccc3c2)c1)CN1CCc2ccccc2C1 (centres unmarked)
Solution: 1000 to 10000 nM

Problem: Find the recorded EC50 belonging to OC(COc1cccc(-c2ccc3ncn(C4CCNCC4)c3c2)c1)CN1CCc2ccccc2C1 (centres unmarked) and report it.
Solution: 101 to 1000 nM

Problem: Entry Cc1ncc2ccc(-c3cccc(OCC(O)CN4CCc5ccccc5C4)c3)cn12 (centres unmarked) : reported EC50 = ?
Solution: 1000 to 10000 nM

Problem: Which EC50 reading was recorded for the compound COC(=O)c1cncc(-c2cccc(OCC(O)CN3CCc4ccccc4C3)c2)c1 (centres unmarked) ?
Solution: > 20000 nM
